- Tested on: Staphylococcus epidermidis
- experimental-protocol: Minimum inhibitory concentration against methicillin-sensitive Staphylococcus epidermidis in the presence of 30% bovine serum
- Type: functional
reported-property: MIC (µg/mL)
Numbers only, in µg/mL.

Worked cases, answers included:
compound	MIC, µg/mL
CCCCCCCCOc1ccc(CNC2[C@H](Oc3c4cc5cc3Oc3ccc(cc3Cl)[C@@H](O)C3NC(=O)[C@H](NC(=O)[C@@H]5NC(=O)[C@H]5NC(=O)[C@@H](Cc6ccc(cc6)O4)NC(=O)[C@H](NC)c4ccc(O)c(c4)Oc4cc(O)c(Cl)c5c4)c4ccc(O)c(c4)-c4c(O[C@H]5O[C@H](CO)[C@@H](O)[C@H](O)[C@@H]5O)cc(O)cc4[C@@H](C(=O)NCCCN(C)C)NC3=O)OC(C(=O)NCCCN(C)C)C(O)[C@@H]2O)cc1 (stereo partly specified)	0.125
CN(Cc1ccc2ccccc2c1)[C@H]1C(=O)N[C@@H]2Cc3ccc(cc3)Oc3cc4cc(c3O[C@@H]3OC(C(=O)O)C(O)[C@H](O)C3NCc3ccc5ccccc5c3)Oc3ccc(cc3Cl)[C@@H](O)C3NC(=O)[C@H](NC(=O)[C@@H]4NC(=O)[C@@H](NC2=O)c2cc(cc(O)c2Cl)Oc2cc1ccc2O)c1ccc(O)c(c1)-c1c(O[C@H]2O[C@H](CO)[C@@H](O)[C@H](O)[C@@H]2O)cc(O)cc1[C@@H](C(=O)O)NC3=O (stereo partly specified)	2
CN(Cc1ccc2ccccc2c1)[C@H]1C(=O)N[C@@H]2Cc3ccc(cc3)Oc3cc4cc(c3O[C@@H]3OC(C(=O)O)C(O)[C@H](O)C3N)Oc3ccc(cc3Cl)[C@@H](O)C3NC(=O)[C@H](NC(=O)[C@@H]4NC(=O)[C@@H](NC2=O)c2cc(cc(O)c2Cl)Oc2cc1ccc2O)c1ccc(O)c(c1)-c1c(O[C@H]2O[C@H](CO)[C@@H](O)[C@H](O)[C@@H]2O)cc(O)cc1[C@@H](C(=O)O)NC3=O (stereo partly specified)	16
CCCCc1ccc(CN(C)[C@H]2C(=O)N[C@@H]3Cc4ccc(cc4)Oc4cc5cc(c4O[C@@H]4OC(C(=O)O)C(O)[C@H](O)C4N)Oc4ccc(cc4Cl)[C@@H](O)C4NC(=O)[C@H](NC(=O)[C@@H]5NC(=O)[C@@H](NC3=O)c3cc(cc(O)c3Cl)Oc3cc2ccc3O)c2ccc(O)c(c2)-c2c(O[C@H]3O[C@H](CO)[C@@H](O)[C@H](O)[C@@H]3O)cc(O)cc2[C@@H](C(=O)O)NC4=O)cc1 (stereo partly specified)	1

Note: attention shifts to another entry.
// query Quick one: give measured MIC for CCCCCCCCCCc1ccc(CNC2[C@H](Oc3c4cc5cc3Oc3ccc(cc3Cl)[C@@H](O)C3NC(=O)[C@H](NC(=O)[C@@H]5NC(=O)[C@H]5NC(=O)[C@@H](Cc6ccc(cc6)O4)NC(=O)[C@H](NC)c4ccc(O)c(c4)Oc4cc(O)c(Cl)c5c4)c4ccc(O)c(c4)-c4c(O[C@H]5O[C@H](CO)[C@@H](O)[C@H](O)[C@@H]5O)cc(O)cc4[C@@H](C(=O)O)NC3=O)OC(C(=O)O)C(O)[C@@H]2O)cc1 (stereo partly specified)
// result 32

###

- System: Enterococcus faecium
- experimental-protocol: Minimum inhibitory concentration against vancomycin-A Enterococcus faecium in the presence of 30% bovine serum (n=1) (range = 64>128mg/L)
- Assay type: functional
reported-property: MIC

// query Quick one: give measured MIC for CCCCc1ccc(CNC2[C@H](Oc3c4cc5cc3Oc3ccc(cc3Cl)[C@@H](O)C3NC(=O)[C@H](NC(=O)[C@@H]5NC(=O)[C@H]5NC(=O)[C@@H](Cc6ccc(cc6)O4)NC(=O)[C@H](NC)c4ccc(O)c(c4)Oc4cc(O)c(Cl)c5c4)c4ccc(O)c(c4)-c4c(O[C@H]5O[C@H](CO)[C@@H](O)[C@H](O)[C@@H]5O)cc(O)cc4[C@@H](C(=O)O)NC3=O)OC(C(=O)O)C(O)[C@@H]2O)cc1 (stereo partly specified)
// result > 128 µg/mL
